Parameter TGI: see the listing below.
# System: UACC-62 melanoma
# Test summary: NCI tumour cell line growth inhibition, 48 h

Would you please look over these solved cases?
Compound	Observed value
CC1=CC=CC(C)(C)CC1(O[Si](C)(C)C)C(F)(F)F (stereo unspecified)	> 100 µM
CC(C)(C)C1=NC(S)NC(CCC(=O)Nc2ccccc2[N+](=O)[O-])=C1 (stereo unspecified)	> 100 µM
Cc1cccc(C(C)(C)C)c1NC(=O)C(=O)Cc1nc2ccccc2s1	> 100 µM
CC(C)/C(Cl)=N\OC(=O)NNc1ccccc1	> 100 µM
COC(=O)C(CC(=O)c1cc2c(cc1I)OCO2)Cc1cc(OC)c(OC)c(OC)c1I (stereo unspecified)	> 100 µM

For Cc1cccc(N(CCC#N)S(=O)(=O)c2ccccc2)c1 the compound record lists TGI as > 100 µM

For CN1CCCNCCN(CCc2ccccn2)CCCN(C)CC1 the compound record lists TGI as > 100 µM

For C1CN2N3CCCC23C1 (stereo unspecified) the compound record lists TGI as > 100 µM

For CCOC(=O)C(=O)N1C(C)=C(C(=O)OCC)CC(C(=O)OCC)=C1C the compound record lists TGI as > 100 µM

For C[C@]12CCC(=O)C=C1CC[C@@H]1C2CC[C@]2(C)NC(=O)C(C#N)CC12 (stereo partly specified) the compound record lists TGI as > 100 µM

For O=c1nc2c(c(-c3cccc(Cl)c3)[nH]1)COC/C2=C\c1cccc(Cl)c1 the compound record lists TGI as > 100 µM

For CN(C)c1ccc(/C=C2\C[N+](C)(C)C/C(=C\c3ccc(N(C)C)cc3)C2=O)cc1 the compound record lists TGI as 30.6 µM

For COC1C=CC23c4cc5c(cc4C(O)OC2CN(C)C3C1)OCO5 (stereo unspecified) the compound record lists TGI as 58.8 µM

For COc1cc([C@@H]2c3cc4c(cc3[C@@H](NC(=O)c3cccc([N+](=O)[O-])c3)C3COC(=O)[C@@H]32)OCO4)cc(OC)c1O (stereo partly specified) the compound record lists TGI as 7.54 µM

For CC(C)CCNC(=O)c1ccc(CNC(=O)/C=C/c2ccc(OCc3ccccc3)cc2)cc1 the compound record lists TGI as > 100 µM

For Cc1c(C(=O)/C=C/c2cccc3ccccc23)[n+](=O)c2ccccc2n1[O-] the compound record lists TGI as 23.9 µM
